biological target: human MCH-1R (human, UniProt Q99705 1-353); assay: cell-based or functional assay
Sequence (Q99705 whole entry, form in doubt): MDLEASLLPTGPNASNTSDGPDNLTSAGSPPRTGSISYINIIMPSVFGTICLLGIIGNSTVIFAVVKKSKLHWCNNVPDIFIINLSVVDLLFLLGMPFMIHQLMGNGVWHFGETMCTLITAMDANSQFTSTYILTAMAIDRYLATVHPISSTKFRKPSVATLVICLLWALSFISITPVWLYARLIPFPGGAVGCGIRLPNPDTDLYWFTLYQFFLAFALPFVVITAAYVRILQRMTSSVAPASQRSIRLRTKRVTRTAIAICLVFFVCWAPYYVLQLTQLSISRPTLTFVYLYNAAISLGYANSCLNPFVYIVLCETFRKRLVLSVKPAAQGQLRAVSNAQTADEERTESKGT
Bridges are numbered along the chain shown (N, C = ends). Where no end group is shown, it is not given here.
Quick reference for EC50 (aequorin functional assay) among some binders
property measured: EC50 (aequorin functional assay) (nM)

{"binder": "DFDALRCMLGRVYRPCWQV (disulfide 7-16, also called Ala^4) [SEQ. ID. NO. 44]", "quantitative result": 12.7}
{"binder": "DFDMLRCALGRVYRPCWQV (disulfide 7-16) [SEQ. ID. NO. 47]", "quantitative result": 731}
{"binder": "DFDMLRCMLGRVYAPCWQV (disulfide 7-16, also called Ala^14) [SEQ. ID. NO. 52]", "quantitative result": 28.3}
{"binder": "DFDMLRCMLGRVYRPCWAV (disulfide 7-16, also called Ala^18) [SEQ. ID. NO. 55]", "quantitative result": 36.1}
{"binder": "DFDMLACMLGRVYRPCWQV (disulfide 7-16, also called Ala^6) [SEQ. ID. NO. 46]", "quantitative result": 161}
{"binder": "DFDMLRCMLGAVYRPCWQV (disulfide 7-16) [SEQ. ID. NO. 49]", "quantitative result": 5240}
{"binder": "DFDMLRCMLGRVYRPCAQV (disulfide 7-16, also called Ala^17) [SEQ. ID. NO. 54]", "quantitative result": 6.8}
{"binder": "DFDMLRCMLGRVFRPCYQV (disulfide 7-16, label prints Tyr^17 while the radioligand is Phe^13, Tyr^19; also called Phe^13, Tyr^17) [SEQ. ID. NO. 57]", "quantitative result": 40}
{"binder": "DFDMLRCMLGRVYRPCWQA (disulfide 7-16, also called Ala^19) [SEQ. ID. NO. 56]", "quantitative result": 17.4}
{"binder": "DFAMLRCMLGRVYRPCWQV (disulfide 7-16, also called Ala^3) [SEQ. ID. NO. 43]", "quantitative result": 30.2}

Data credit: patent US20040147432A1
